Tested on: NCI-H23
Experiment: NCI tumour cell line growth inhibition, 48 h
Activity calls are given as the source filed them. Rule as the data show it: active = GI50 up to about 1.1 µM and inactive = higher.
I would appreciate it if you answered using one of these outcomes: 1 for active, 0 for inactive

[ask] Fill in: this test's call for O=C1Nc2c(Cl)cc(Cl)cc2C1=O is ___
[reply] 0

[ask] Fill in: this test's call for COC(=O)/C(C#N)=C(\Nc1ccccc1)N1CCOCC1 is ___
[reply] 0

[ask] Fill in: this test's call for COc1ccc(-c2ncn(C[Si](C)(C)C)c2-c2ccc(OC)cc2)cc1 is ___
[reply] 0

[ask] Fill in: this test's call for CC(Oc1ccc2cc(C(=O)c3ccccc3)c(=O)oc2c1)C(=O)O (stereo not drawn) is ___
[reply] 0

[ask] Fill in: this test's call for COc1ccc(NC(=O)CC(=O)NNC(Sc2ccccc2)c2cc(/N=N/c3ccc(Br)cc3)ccc2O)cc1 (stereo not drawn) is ___
[reply] 0

[ask] Fill in: this test's call for CC1(C)OC(CCC#N)CN1C(=O)OCc1ccccc1 (stereo not drawn) is ___
[reply] 0

[ask] Fill in: this test's call for C=C1C(=O)OC2/C=C(/C)C(OC(C)=O)C/C=C(\C)C(OC(=O)C3(C)OC3C)C(O)C12 (stereo not drawn) is ___
[reply] 0

[ask] Fill in: this test's call for CS(=O)(=O)OCCN(CCOS(C)(=O)=O)c1ccc(/C=N/c2ccc(-c3csc(Cc4ccccc4)n3)cc2)c(Cl)c1 is ___
[reply] 0

[ask] Fill in: this test's call for COC(=O)c1c(O)ccc2c1c1c(n2Cc2ccccc2)C(=O)c2ccccc2C1 is ___
[reply] 0

[ask] Fill in: this test's call for CC(c1ccc2c(c1)CCC1C2CC2OC23CC=CC(=O)[C@]13C)C1C[C@]2(C)O[C@]2(C)[C@H](O)O1 (stereo partly drawn) is ___
[reply] 1

[ask] Fill in: this test's call for O=C(N/N=C(COc1ccccc1Cl)\N=C\c1ccncc1)c1ccncc1 is ___
[reply] 0

[ask] Fill in: this test's call for O=[As](O)(O)c1ccc(Cc2ccc([As](=O)(O)O)cc2)cc1 is ___
[reply] 1

[ask] Fill in: this test's call for CC(=O)Nc1ccc(/C=C/C(=O)c2sc(-c3nc(C)c(C(=O)/C=C/c4ccc(NC(C)=O)cc4)s3)nc2C)cc1 is ___
[reply] 0

[ask] Fill in: this test's call for O=C(O)CN(c1ccccc1)S(=O)(=O)c1ccc(NC(=O)c2ccccc2)cc1 is ___
[reply] 0

[ask] Fill in: this test's call for COc1ccc2nc3c(c(NCCCN(C)C)c2c1)CCCC3 is ___
[reply] 0

[ask] Fill in: this test's call for COc1cc2c(/C=C3/C(=O)Nc4cc(C)c(O)cc43)c(Cl)[nH]c2cc1C is ___
[reply] 0

[ask] Fill in: this test's call for O=[N+]([O-])c1ccc(Cl)c(C2SCc3nc4ccccc4n32)c1 (stereo not drawn) is ___
[reply] 0

[ask] Fill in: this test's call for C[C@H]1[C@H](C)CC[C@]2(C(=O)OC3OC(CO)C(O)C(O)C3O)CC[C@]3(C)C(=CC[C@@H]4[C@@]5(C)C[C@@H](O)[C@@H]6OC(=O)c7cc(O)c(O)c(O)c7-c7c(cc(O)c(O)c7O)C(=O)OC[C@@]6(CO)[C@@H]5CC[C@]43C)[C@H]12 (stereo partly drawn) is ___
[reply] 0

Data credit: ChEMBL document CHEMBL1201862
